Give MIC after pH treatment, pH 6 for every item shown.
# System: E. coli ATCC25922
# Format: cell-based, Escherichia coli
# Applied conditions: ATCC25922, 1 h, pH 6
Non-standard residues stand in square brackets, D forms with d. Residues, ends and D or L forms follow the SMILES beside them.
One number for each entry, in µM.

# example entries with known answers
CC[C@H](C)[C@H](N)C(=O)N[C@H](C(=O)N[C@@H](CCCNC(=N)N)C(=O)N[C@H](C(=O)N[C@H](C(=O)N[C@@H](CCCNC(=N)N)C(=O)N[C@@H](CCCNC(=N)N)C(=O)N1CCC[C@@H]1C(=O)NCC(=O)N[C@@H](CCCNC(=N)N)C(=O)N[C@@H](CCCNC(=N)N)C(=O)N[C@H](C(=O)N[C@H](C(=O)N[C@@H](CCCNC(=N)N)C(=O)N[C@H](C(=O)N[C@H](C(N)=O)[C@@H](C)CC)[C@@H](C)CC)[C@@H](C)CC)[C@@H](C)CC)[C@@H](C)CC)[C@@H](C)CC)[C@@H](C)CC [IRpG] (H-IIRIIRR[dP]GRRIIRII-NH2) ... 4
N=C(N)NCCC[C@H](NC(=O)CNC(=O)[C@H]1CCCN1C(=O)[C@H](CCCNC(=N)N)NC(=O)[C@H](CCCNC(=N)N)NC(=O)[C@H](Cc1ccccc1)NC(=O)[C@H](Cc1ccccc1)NC(=O)[C@H](CCCNC(=N)N)NC(=O)[C@H](Cc1ccccc1)NC(=O)[C@@H](N)Cc1ccccc1)C(=O)N[C@@H](CCCNC(=N)N)C(=O)N[C@@H](Cc1ccccc1)C(=O)N[C@@H](Cc1ccccc1)C(=O)N[C@@H](CCCNC(=N)N)C(=O)N[C@@H](Cc1ccccc1)C(=O)N[C@@H](Cc1ccccc1)C(N)=O [FRpG] (H-FFRFFRR[dP]GRRFFRFF-NH2) ... 8

Lab note: next molecule to report on.
Query CC(C)C[C@H](NC(=O)CN)C(=O)N[C@@H](CCCNC(=N)N)C(=O)N[C@@H](CC(C)C)C(=O)N[C@@H](CC(C)C)C(=O)N[C@@H](CCCNC(=N)N)C(=O)N[C@@H](CCCNC(=N)N)C(=O)N[C@@H](CC(C)C)C(=O)N[C@@H](CC(C)C)C(=O)N[C@@H](CCCNC(=N)N)C(=O)N[C@@H](CCCNC(=N)N)C(=O)N[C@@H](CC(C)C)C(=O)N[C@@H](CC(C)C)C(=O)N[C@@H](CCCNC(=N)N)C(=O)N[C@@H](CC(C)C)C(=O)N1CCC[C@@H]1C(N)=O [LRα] (H-GLRLLRRLLRRLLRL[dP]-NH2) yields MIC after pH treatment, pH 6 of 2

---

# Test system: E. coli ATCC25922
# Assay type: cell-based, Escherichia coli
# Applied conditions: ATCC25922, 16 h
Non-standard residues stand in square brackets, D forms with d. Residues, ends and D or L forms follow the SMILES beside them.
Assay endpoint: MIC, Control (µM)
Numbers only, in µM.

Query CC(C)C[C@H](NC(=O)CN)C(=O)N[C@@H](CCCNC(=N)N)C(=O)N[C@@H](CC(C)C)C(=O)N[C@@H](CC(C)C)C(=O)N[C@@H](CCCNC(=N)N)C(=O)N[C@@H](CCCNC(=N)N)C(=O)N[C@@H](CC(C)C)C(=O)N[C@@H](CC(C)C)C(=O)N[C@@H](CCCNC(=N)N)C(=O)N[C@@H](CCCNC(=N)N)C(=O)N[C@@H](CC(C)C)C(=O)N[C@@H](CC(C)C)C(=O)N[C@@H](CCCNC(=N)N)C(=O)N[C@@H](CC(C)C)C(=O)N1CCC[C@@H]1C(N)=O [LRα] (H-GLRLLRRLLRRLLRL[dP]-NH2) yields MIC, Control of 2

---

# Tested on: Escherichia coli ATCC25922
# Protocol text: microbe, parasite or virus in culture
# Applied conditions: ATCC25922, 16 h
# Method: The antimicrobial activity of the designed peptides was examined using the micro-dilution method described previously. The bacteria were cultured for 16 h in MHB at 37 °C, and the microbial suspension was diluted to a final concentration of 10^5 colony-forming units (CFU)/mL. Then, 50 µL of MHB containing different concentrations peptides (0.25–256 µM) was mixed with 50 µL of bacterial solution, and the mixture was added to a 96-well plate. […] The assays were performed three times.
Non-standard residues stand in square brackets, D forms with d. Residues, ends and D or L forms follow the SMILES beside them.
Assay endpoint: MIC
Be sure to follow the number with its unit.

Query CC(C)C[C@H](NC(=O)[C@H](CC(C)C)NC(=O)[C@H](CCCNC(=N)N)NC(=O)[C@H](CC(C)C)NC(=O)[C@H](CC(C)C)NC(=O)[C@H](CCCNC(=N)N)NC(=O)[C@H](CCCNC(=N)N)NC(=O)CNC(=O)[C@H]1CCCN1C(=O)[C@H](CCCNC(=N)N)NC(=O)[C@H](CCCNC(=N)N)NC(=O)[C@H](CC(C)C)NC(=O)[C@H](CC(C)C)NC(=O)[C@H](CCCNC(=N)N)NC(=O)[C@H](CC(C)C)NC(=O)[C@@H](N)CC(C)C)C(N)=O [LRpG] (H-LLRLLRR[dP]GRRLLRLL-NH2) yields MIC of 2 µM

---

# System: Escherichia coli ATCC25922
# Protocol text: microbe, parasite or virus in culture
# Applied conditions: ATCC25922, 16 h
Non-standard residues stand in square brackets, D forms with d. Residues, ends and D or L forms follow the SMILES beside them.
Assay endpoint: MIC (µM)
Give bare numbers, in µM.

# example entries with known answers
CC(C)C[C@H](NC(=O)CN)C(=O)N[C@@H](CCCNC(=N)N)C(=O)N[C@@H](CC(C)C)C(=O)N[C@@H](CC(C)C)C(=O)N[C@@H](CCCNC(=N)N)C(=O)N[C@@H](CCCNC(=N)N)C(=O)N[C@@H](CC(C)C)C(=O)N[C@@H](CC(C)C)C(=O)N[C@@H](CCCNC(=N)N)C(=O)N[C@@H](CCCNC(=N)N)C(=O)N[C@@H](CC(C)C)C(=O)N[C@@H](CC(C)C)C(=O)N[C@@H](CCCNC(=N)N)C(=O)N[C@@H](CC(C)C)C(=O)N1CCC[C@@H]1C(N)=O [LRα] (H-GLRLLRRLLRRLLRL[dP]-NH2) ... 2
N=C(N)NCCC[C@H](NC(=O)CNC(=O)[C@H]1CCCN1C(=O)[C@H](CCCNC(=N)N)NC(=O)[C@H](CCCNC(=N)N)NC(=O)[C@H](Cc1ccccc1)NC(=O)[C@H](Cc1ccccc1)NC(=O)[C@H](CCCNC(=N)N)NC(=O)[C@H](Cc1ccccc1)NC(=O)[C@@H](N)Cc1ccccc1)C(=O)N[C@@H](CCCNC(=N)N)C(=O)N[C@@H](Cc1ccccc1)C(=O)N[C@@H](Cc1ccccc1)C(=O)N[C@@H](CCCNC(=N)N)C(=O)N[C@@H](Cc1ccccc1)C(=O)N[C@@H](Cc1ccccc1)C(N)=O [FRpG] (H-FFRFFRR[dP]GRRFFRFF-NH2) ... 8

Query CC[C@H](C)[C@H](N)C(=O)N[C@H](C(=O)N[C@@H](CCCNC(=N)N)C(=O)N[C@H](C(=O)N[C@H](C(=O)N[C@@H](CCCNC(=N)N)C(=O)N[C@@H](CCCNC(=N)N)C(=O)N1CCC[C@@H]1C(=O)NCC(=O)N[C@@H](CCCNC(=N)N)C(=O)N[C@@H](CCCNC(=N)N)C(=O)N[C@H](C(=O)N[C@H](C(=O)N[C@@H](CCCNC(=N)N)C(=O)N[C@H](C(=O)N[C@H](C(N)=O)[C@@H](C)CC)[C@@H](C)CC)[C@@H](C)CC)[C@@H](C)CC)[C@@H](C)CC)[C@@H](C)CC)[C@@H](C)CC [IRpG] (H-IIRIIRR[dP]GRRIIRII-NH2) yields MIC of 4

---

Give cell survival rate for every item shown.
# Test system: HEK293T cells
# Protocol text: Cytotoxicity, CCK-8 assay
# Type: cell-based, human
# Applied conditions: 64 μM peptide, 16 h, CCK-8, OD 450 nm
Non-standard residues stand in square brackets, D forms with d. Residues, ends and D or L forms follow the SMILES beside them.
Answers are plain numbers, in %.

# example entries with known answers
CC[C@H](C)[C@H](N)C(=O)N[C@H](C(=O)N[C@@H](CCCNC(=N)N)C(=O)N[C@H](C(=O)N[C@H](C(=O)N[C@@H](CCCNC(=N)N)C(=O)N[C@@H](CCCNC(=N)N)C(=O)N1CCC[C@@H]1C(=O)NCC(=O)N[C@@H](CCCNC(=N)N)C(=O)N[C@@H](CCCNC(=N)N)C(=O)N[C@H](C(=O)N[C@H](C(=O)N[C@@H](CCCNC(=N)N)C(=O)N[C@H](C(=O)N[C@H](C(N)=O)[C@@H](C)CC)[C@@H](C)CC)[C@@H](C)CC)[C@@H](C)CC)[C@@H](C)CC)[C@@H](C)CC)[C@@H](C)CC [IRpG] (H-IIRIIRR[dP]GRRIIRII-NH2) ... 98
N=C(N)NCCC[C@H](NC(=O)CNC(=O)[C@H]1CCCN1C(=O)[C@H](CCCNC(=N)N)NC(=O)[C@H](CCCNC(=N)N)NC(=O)[C@H](Cc1ccccc1)NC(=O)[C@H](Cc1ccccc1)NC(=O)[C@H](CCCNC(=N)N)NC(=O)[C@H](Cc1ccccc1)NC(=O)[C@@H](N)Cc1ccccc1)C(=O)N[C@@H](CCCNC(=N)N)C(=O)N[C@@H](Cc1ccccc1)C(=O)N[C@@H](Cc1ccccc1)C(=O)N[C@@H](CCCNC(=N)N)C(=O)N[C@@H](Cc1ccccc1)C(=O)N[C@@H](Cc1ccccc1)C(N)=O [FRpG] (H-FFRFFRR[dP]GRRFFRFF-NH2) ... 85

Lab note: next compound to report on.
HEK293T cells cell survival rate of CC(C)C[C@H](NC(=O)[C@H](CC(C)C)NC(=O)[C@H](CCCNC(=N)N)NC(=O)[C@H](CC(C)C)NC(=O)[C@H](CC(C)C)NC(=O)[C@H](CCCNC(=N)N)NC(=O)[C@H](CCCNC(=N)N)NC(=O)CNC(=O)[C@H]1CCCN1C(=O)[C@H](CCCNC(=N)N)NC(=O)[C@H](CCCNC(=N)N)NC(=O)[C@H](CC(C)C)NC(=O)[C@H](CC(C)C)NC(=O)[C@H](CCCNC(=N)N)NC(=O)[C@H](CC(C)C)NC(=O)[C@@H](N)CC(C)C)C(N)=O [LRpG] (H-LLRLLRR[dP]GRRLLRLL-NH2) is 93
